Reported GI50 by item:
# Tested on: M14
# assayDetails: NCI tumour cell line growth inhibition, 48 h
Activity calls are given as the source filed them. No stated cut-off is given here; in the data, active = GI50 up to about 1.1 µM and inactive = higher. *1 amine or outer side, *2 acyl side, *3 side chain or, on linkers, in order; H or OH if unused. Where a SMILES comes first, the peptide text is derived from it. Bridges are numbered along the chain shown (N, C = ends). [ ]: non-standard residue; d: D form. The star is where a group is joined. X36 = O=C(C(CCCCNO[*:3])N[*:1])[*:2]; Fmoc = O=C(OCC1c2ccccc2-c2ccccc21)*
observable: GI50

[[record]]
compound = "CC(C)(CO)NC(=O)Nc1c(C(F)(F)F)cc(-c2ccccc2)[nH]c1=O"
testresult = "> 100 µM (inactive)"

[[record]]
compound = "N#Cc1sc2c(c1OC(=O)c1cccs1)c(=O)n(-c1ccccc1)c(=S)n2-c1ccccc1"
testresult = "19.1 µM (inactive)"

[[record]]
compound = "COc1ccc(Nc2c(C#N)c3n(c4ccccc24)c2ccccc2[n+]3C)cc1OC"
testresult = "2.94 µM (inactive)"

[[record]]
compound = "C/C(CN1C(=O)c2ccccc2C1=O)=N\\NS(=O)(=O)c1ccccc1"
testresult = "> 100 µM (inactive)"

[[record]]
compound = "CCOC(=O)C1(C(=O)OCC)OC(C)=NC1(C(=O)OC)C(=O)OC"
testresult = "> 100 µM (inactive)"

[[record]]
compound = "C(=N\\N=C1NCCCCN1)/c1ccc2ccccc2c1"
testresult = "14.5 µM (inactive)"

[[record]]
compound = "O=C(/C=C/c1ccc(O)cc1)c1cc(-c2cc(CCC(=O)c3ccc(O)cc3O)ccc2O)c(O)cc1O"
testresult = "41.6 µM (inactive)"

[[record]]
compound = "C[C@]12CCC(=O)C=C1CC[C@@H]1[C@@H]2CC[C@]2(C)C(=O)/C(=C/c3ccncc3)C[C@@H]12"
testresult = "14.6 µM (inactive)"

[[record]]
compound = "N#C/C(=C\\c1ccc[nH]1)C(=O)c1ccccc1"
testresult = "> 100 µM (inactive)"

[[record]]
compound = "CSc1nc2c(c(O)c(C)c(=O)n2C2OCC(OC(C)=O)C(OC(C)=O)C2OC(C)=O)c(=O)n1C (stereo not given)"
testresult = "> 100 µM (inactive)"

[[record]]
compound = "O=C1CCC(=O)N1Cc1ccccc1/N=[N+](\\[O-])c1ccccc1CN1C(=O)CCC1=O"
testresult = "> 100 µM (inactive)"

[[record]]
compound = "CCOP(=O)(OCC)/C(C#N)=C/c1ccc(-c2ccc(F)cc2F)o1"
testresult = "17.2 µM (inactive)"

[[record]]
compound = "Cc1cc2cc3c(cc2c(-c2ccc([N+](=O)[O-])cc2)n1)OCO3"
testresult = "88.7 µM (inactive)"

[[record]]
compound = "O=C(Nc1ccc(Sc2ccc(/N=N/c3c(O)c(S(=O)(=O)O)cc4cc(S(=O)(=O)O)ccc34)cc2)cc1)c1ccc(/N=N/c2c(O)ccc3c(S(=O)(=O)O)cc(S(=O)(=O)O)cc23)cc1"
testresult = "21.7 µM (inactive)"

[[record]]
compound = "O=C(c1ccccc1)N1CCN(C(=S)NC2CCCCC2)C1=S"
testresult = "16.8 µM (inactive)"

[[record]]
compound = "O=C(Nc1cccc(-c2cn3ccccc3n2)c1)c1ccncc1"
testresult = "33.7 µM (inactive)"

[[record]]
compound = "O=[N+]([O-])c1ccc(-c2nc(/C=N/N3CCCCC3)cs2)o1"
testresult = "37.4 µM (inactive)"

[[record]]
compound = "NC(=O)CNC(=O)C1CCCN1C(=O)C1CCCCNOC(=O)CCC(NC(=O)OCC2c3ccccc3-c3ccccc32)C(=O)NC(Cc2c[nH]c3ccccc23)C(=O)N1 (stereo not given) (Fmoc-EW[X36]PG-NH2; ester 1-3; configuration not given here)"
testresult = "54.3 µM (inactive)"

[[record]]
compound = "N#CC(C(=O)c1cccnc1Cl)c1nc2cc(C(F)(F)F)ccc2s1 (stereo not given)"
testresult = "50.8 µM (inactive)"

[[record]]
compound = "C1=CC2SSSC2C1 (stereo not given)"
testresult = "> 100 µM (inactive)"

[[record]]
compound = "COc1ccc(OC)c(/C=C/C(=O)C(C)(C)C)c1"
testresult = "15.7 µM (inactive)"

[[record]]
compound = "O=C(/C=N/O)Nc1cc(Cl)c(Cl)cc1Cl"
testresult = "34.4 µM (inactive)"

[[record]]
compound = "COC(=O)C(Cc1ccccc1)NC(=O)CNC(=O)CSc1nnc(COc2ccc(Cl)cc2)n1-c1ccccc1 (stereo not given)"
testresult = "17.7 µM (inactive)"

[[record]]
compound = "O=C(CSc1nc2ccc(I)cc2c(=O)n1Cc1ccccc1)Nc1ccccc1"
testresult = "52.1 µM (inactive)"

[[record]]
compound = "COc1cc2oc(-c3ccc(O)cc3)cc(=O)c2c(OC)c1OC"
testresult = "> 100 µM (inactive)"

